Measured inhibition, listed per entry.
assayed.system: Coagulation factor XI (Homo sapiens)
protocol: human FXIa protease inhibitors, primary screen, biochemical, single compound per well (AID 687);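 note: 0% = enzyme without compound and 100% = blank wells lacking enzyme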
test.settings: purified human FXIa, fluorogenic AMC substrate cleavage; at 10 µM; stronger effect = higher value
Out of some 33,000 compounds screened, about 95 (0.3%) were called active. Only a selection was taken, and actives are over-represented in it overall.
// units = %; emit number, no label

Reference set (2 entries):
CCOc1ccc(C(=O)Nc2ccncc2)cc1 :: -1.05
O=C(CC1NCCNC1=O)Nc1ccc(Oc2ccccc2)cc1 (centres undefined) :: 0

Which inhibition reading was recorded for the compound CC(C)C(c1nnnn1Cc1ccccc1)N1CCC(C(N)=O)CC1 (centres undefined) ?
3.2

Which inhibition reading was recorded for the compound "OCCN1CCOCCOCCN(CCO)CCN(CCO)CC1" ?
29.9

Which inhibition reading was recorded for the compound O=C1CSC(c2ccc(Cl)cc2)N1 (centres undefined) ?
-2.99

Which inhibition reading was recorded for the compound "Cc1cc(C)n(C(=O)CCNC(=O)c2ccccc2Cl)n1" ?
-5.37

Which inhibition reading was recorded for the compound CCC(=O)NC(Nc1nc2ccc(C)cc2s1)(C(=O)OC)C(F)(F)F (centres undefined) ?
0.39

Which inhibition reading was recorded for the compound "CC1(C)N=C(c2ccccn2)C(C)(C)N1O" ?
-1.83

Which inhibition reading was recorded for the compound CC1CCC(N2CC(=O)N(Cc3ccc4c(c3)OCO4)C(c3ccc(F)cc3)C2=O)CC1 (centres undefined) ?
1.08

Which inhibition reading was recorded for the compound "CCc1ccc(CNC(=O)CCc2nc(-c3cccs3)no2)cc1" ?
5.18

Which inhibition reading was recorded for the compound CCc1cccc(C)c1N(C(=O)Cn1c(CO)nc2ccccc21)C(C)COC (centres undefined) ?
20.8

Which inhibition reading was recorded for the compound "COc1ccc(CN2CCn3ncc(C(=O)Nc4ccc(Cl)cc4Cl)c3C2=O)cc1" ?
8.32

Which inhibition reading was recorded for the compound "CCc1nc(N2CCN(c3nc(C)cc(C)n3)CC2)c2oc3ccccc3c2n1" ?
-4.81

Which inhibition reading was recorded for the compound "Cn1nnnc1SCC(=O)N1CCN(C(c2ccccc2)c2ccccc2)CC1" ?
-3.99

Which inhibition reading was recorded for the compound "Cc1ccc(CNC(=O)CCNS(=O)(=O)c2cccc3nonc23)cc1" ?
-10.4

Which inhibition reading was recorded for the compound CCc1ccc(CNC(=O)C2CC(=O)N(CCc3ccc(C)cc3)C2)cc1 (centres undefined) ?
1.74
